Reference source for all entries: patent US10865201B2

system-name: human GPR120 (Homo sapiens)
Construct: expressed in transfected cells; host or cells: CHO-K1 coexpressing Gα16 and mitochondrial apoaequorin
assay-protocol: Human GPR120 Calcium-Release Assay
Type: cell-based
settings: short variant of human GPR120 in CHO-K1 cells coexpressing Gα16 and mitochondrial apoaequorin; luminescence; read-out: Ca2+ pEC50 (converted)
Sequence (Q5NUL3 whole entry): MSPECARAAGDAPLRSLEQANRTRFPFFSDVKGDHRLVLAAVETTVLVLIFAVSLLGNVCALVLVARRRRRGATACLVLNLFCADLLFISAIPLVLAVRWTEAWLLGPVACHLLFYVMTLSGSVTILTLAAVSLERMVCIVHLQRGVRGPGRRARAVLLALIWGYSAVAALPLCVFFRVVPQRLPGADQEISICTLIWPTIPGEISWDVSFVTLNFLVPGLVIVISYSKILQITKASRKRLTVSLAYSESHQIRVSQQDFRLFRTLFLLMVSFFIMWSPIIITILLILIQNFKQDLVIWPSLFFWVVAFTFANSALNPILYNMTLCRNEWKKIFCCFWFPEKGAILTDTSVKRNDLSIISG
Listed next: entries and their corresponding EC50.
parameter: EC50 (µM)

- O=S1(=O)c2ccc(Oc3cccnc3)cc2CN1Cc1cccnc1 [Compound 19]: 15.8
- O=S1(=O)c2ccc(OC3CC(F)(F)C3)cc2CN1Cc1ccccc1 [Compound 14]: 20
- O=S1(=O)c2ccc(Oc3cccnc3)cc2CN1Cc1ccc(Cl)cc1 [Compound 10]: 2.51
- O=S1(=O)c2ccc(Oc3cccnc3)cc2CN1c1ccccc1 [Compound 24]: 2.51
- O=S1(=O)c2ccc(Oc3cccnc3)cc2CN1Cc1ccc(Cl)cc1Cl [Compound 11]: 3.98
- O=C1c2ccc(Oc3cccnc3)cc2CN1Cc1ccccc1 [Compound 46]: 10
- O=S1(=O)c2ccc(Oc3cccnc3)cc2CN1Cc1cccc(Cl)c1 [Compound 9]: 1.58
- O=S1(=O)c2ccc(Oc3ccc(Cl)cc3)cc2CN1Cc1ccccc1 [Compound 4]: 7.94

* * *

system-name: human GPR120 (Homo sapiens, UniProt Q5NUL3)
Construct: expressed in transfected cells; host or cells: CHO-K1 coexpressing Gα16 and mitochondrial apoaequorin
assay-protocol: Human GPR120 Calcium-Release Assay
Format: cell-based
settings: short variant of human GPR120 in CHO-K1 cells coexpressing Gα16 and mitochondrial apoaequorin; luminescence; read-out: Ca2+ pEC50 (converted)
Description: This in vitro assay tests compounds' ability to activate heterologously expressed human GPR120 via G-protein coupling leading to generation of inositol 1,4,5-triphosphate and mobilization of intracellular calcium. This functional cellular assay is based on the luminescence of mitochondrial aequorin following intracellular Ca^2+ release. […] Binding of Ca^2+ to the active protein induces a conformational change, resulting in oxidation of coelenterazine and subsequent blue luminescence. […]
Listed next: entries and their corresponding EC50.
parameter: EC50 (µM)

- O=S1(=O)c2ccc(Oc3ccccc3)cc2CN1c1ccccc1: 1.26
- O=S1(=O)c2ccc(Oc3cccnc3)cc2CN1c1ccccn1: 10
- O=S1(=O)c2ccc(Oc3cccc(Cl)c3)cc2CN1c1ccccc1: 39.8
- O=S1(=O)c2ccc(Oc3cccc(Cl)c3)cc2CN1Cc1ccccc1: 3.98
- O=S1(=O)c2ccc(Oc3ccccc3)cc2CN1Cc1ccccc1: 1
- O=S1(=O)c2ccc(Oc3cccnc3)cc2CN1Cc1ccncc1: 10
- O=S1(=O)c2ccc(OC3CCC3)cc2CN1Cc1ccccc1: 0.794
- O=S1(=O)c2ccc(Oc3cccnc3)cc2CN1Cc1c(F)cccc1Cl: 2

* * *

system-name: human GPR120 (Homo sapiens)
Construct: host or cells: CHO-K1
assay-protocol: Human GPR120 β-Arrestin Recruitment Assay
Assay type: cell-based
settings: CHO-K1 cells co-expressing ProLink-tagged human GPR120 and β-Arrestin 2/β-gal fusion; PathHunter; 90 minutes at 37° C.; read-out: β-Arr pEC50 (converted)
Sequence (Q5NUL3 1-377 isoform Q5NUL3-1): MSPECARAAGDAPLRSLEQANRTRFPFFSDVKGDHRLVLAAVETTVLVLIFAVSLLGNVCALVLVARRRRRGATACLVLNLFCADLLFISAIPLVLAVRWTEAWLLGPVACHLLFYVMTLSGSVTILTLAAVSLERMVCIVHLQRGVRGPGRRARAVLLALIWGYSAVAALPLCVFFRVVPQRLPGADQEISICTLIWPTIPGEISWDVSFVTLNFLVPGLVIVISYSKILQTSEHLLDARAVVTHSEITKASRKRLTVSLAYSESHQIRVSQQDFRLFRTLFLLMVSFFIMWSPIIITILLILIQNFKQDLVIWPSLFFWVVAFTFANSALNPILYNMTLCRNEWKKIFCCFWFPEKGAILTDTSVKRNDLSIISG
Sequence (P32121 whole entry partner): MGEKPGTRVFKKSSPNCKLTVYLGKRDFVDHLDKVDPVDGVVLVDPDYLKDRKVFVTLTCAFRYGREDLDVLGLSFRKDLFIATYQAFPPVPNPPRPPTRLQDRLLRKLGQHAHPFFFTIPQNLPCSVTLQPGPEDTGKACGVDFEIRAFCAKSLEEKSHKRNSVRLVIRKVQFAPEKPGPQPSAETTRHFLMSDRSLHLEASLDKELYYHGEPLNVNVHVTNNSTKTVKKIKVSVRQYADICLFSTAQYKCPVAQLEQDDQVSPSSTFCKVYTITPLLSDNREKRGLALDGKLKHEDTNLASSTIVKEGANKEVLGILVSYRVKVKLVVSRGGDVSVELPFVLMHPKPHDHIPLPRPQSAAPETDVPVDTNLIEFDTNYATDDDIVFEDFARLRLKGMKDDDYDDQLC
Mark true (1) only for EC50 values smaller than 6 µM; exact matches and larger values are false (0).

- O=S1(=O)c2ccc(Oc3cccnc3)cc2CN1c1cccc(Cl)c1: true (1)
- O=S1(=O)c2ccc(Oc3ccncc3)cc2CN1c1ccccc1: false (0)
- O=S1(=O)c2ccc(Oc3ccccn3)cc2CN1c1ccccc1: false (0)
- O=S1(=O)c2ccc(Oc3cccc(Cl)c3)cc2CN1Cc1ccccc1: true (1)
- O=S1(=O)c2ccc(Oc3cccnc3)cc2CN1Cc1ccccc1Cl: false (0)
- O=S1(=O)c2ccc(Oc3cccnc3)cc2CN1Cc1cccc(Cl)c1: true (1)
- O=S1(=O)c2ccc(Oc3cccnc3)cc2CN1c1ccncc1: false (0)
- O=C(O)c1cccc(CN2Cc3cc(Oc4cccnc4)ccc3S2(=O)=O)c1: false (0)
- O=S1(=O)c2ccc(Oc3cccnc3)cc2CN1C1CCC1: false (0)

* * *

system-name: human GPR120 (Homo sapiens)
Construct: host or cells: CHO-K1
assay-protocol: Human GPR120 β-Arrestin Recruitment Assay
Format: cell-based
settings: CHO-K1 cells co-expressing ProLink-tagged human GPR120 and β-Arrestin 2/β-gal fusion; PathHunter; 90 minutes at 37° C.; read-out: β-Arr pEC50 (converted)
parameter: EC50 (µM)

* O=S1(=O)c2ccc(Oc3cccnc3)cc2CN1Cc1cc(OC(F)(F)F)ccc1Cl | 3.16
* O=S1(=O)c2ccc(OC3CC(F)(F)C3)cc2CN1Cc1ccccc1 | 12.6
* O=S1(=O)c2ccc(Oc3cccnc3)cc2CN1Cc1ccc(Cl)cc1 | 3.16
* O=S1(=O)c2ccc(Oc3ccc(Cl)c(Cl)c3)cc2CN1Cc1ccccc1 | 1.58
* O=S1(=O)c2ccc(Oc3cccnc3)cc2CN1Cc1ccc(Cl)cc1Cl | 7.94
* O=S1(=O)c2ccc(OC3CCC3)cc2CN1Cc1ccccc1 | 0.501
* O=S1(=O)c2ccc(Oc3cccnc3)cc2CN1Cc1c(F)cccc1Cl | 3.98
* O=S1(=O)c2ccc(Oc3cccnc3)cc2CN1Cc1ccncc1 | 3.16
* O=S1(=O)c2ccc(Oc3cccnc3)cc2CN1Cc1cccnc1 | 7.94

* * *

system-name: human GPR120 (Homo sapiens)
Construct: host or cells: CHO-K1
assay-protocol: Human GPR120 β-Arrestin Recruitment Assay
Type: cell-based
settings: CHO-K1 cells co-expressing ProLink-tagged human GPR120 and β-Arrestin 2/β-gal fusion; PathHunter; 90 minutes at 37° C.; read-out: β-Arr pEC50 (converted)
parameter: EC50 (µM)

* O=S1(=O)c2ccc(Oc3ccccc3)cc2CN1c1ccccc1 [Compound 25] | 1
* Cc1cc(Oc2cccnc2)cc2c1S(=O)(=O)N(Cc1ccccc1)C2 [Compound 23] | 2
* O=S1(=O)c2ccc(OC3CCC3)cc2CN1c1ccccc1 [Compound 30] | 2.51

* * *

Listed next: entries and their corresponding EC50.
system-name: human GPR120 (Homo sapiens)
Construct: host or cells: CHO-K1
assay-protocol: Human GPR120 β-Arrestin Recruitment Assay
Type: cell-based
settings: CHO-K1 cells co-expressing ProLink-tagged human GPR120 and β-Arrestin 2/β-gal fusion; PathHunter; 90 minutes at 37° C.; read-out: β-Arr pEC50 (converted)
parameter: EC50 (µM)

* O=S1(=O)c2ccc(Oc3cccnc3)cc2CN1c1ccccc1 | 7.94
* O=S1(=O)c2ccc(OCc3ccccc3)cc2CN1c1ccccc1 | 5.01
* O=C1c2ccc(Oc3cccnc3)cc2CN1Cc1ccccc1 | 6.31
* O=S1(=O)c2ccc(Oc3cccnc3)cc2CN1c1cccc(OC(F)(F)F)c1 | 5.01
* O=S1(=O)c2ccc(Oc3ccccc3)cc2CN1Cc1ccccc1 | 0.501
* O=S1(=O)c2ccc(Oc3ccc(Cl)cc3)cc2CN1Cc1ccccc1 | 0.251
* O=S1(=O)c2ccc(Oc3cccnc3)cc2CN1c1ccccn1 | 15.8
* O=S1(=O)c2ccc(Oc3cccc(Cl)c3)cc2CN1c1ccccc1 | 0.794

* * *

system-name: human GPR120 (Homo sapiens)
Construct: host or cells: CHO-K1
assay-protocol: Human GPR120 β-Arrestin Recruitment Assay
Assay type: cell-based
settings: CHO-K1 cells co-expressing ProLink-tagged human GPR120 and β-Arrestin 2/β-gal fusion; PathHunter; 90 minutes at 37° C.; read-out: β-Arr pEC50 (converted)
parameter: EC50

* O=S1(=O)c2ccc(OCc3cccnc3)cc2CN1c1ccccc1 | > 31.6 µM
* O=C1c2ccc(Oc3cccnc3)cc2CN1c1ccccc1 | > 10 µM
* O=S1(=O)c2ccc(Oc3ccc(Cl)cc3)cc2CN1c1ccccc1 | > 10 µM
* O=S1(=O)c2ccc(Oc3cccnc3)cc2CN1Cc1c(Cl)cccc1Cl | > 10 µM
* O=S1(=O)c2ccc(Oc3cccnc3)cc2CN1c1cccnc1 | > 10 µM
* CN1Cc2cc(Oc3cccnc3)ccc2S1(=O)=O | > 31.6 µM
* CC(c1ccccc1)N1Cc2cc(Oc3cccnc3)ccc2S1(=O)=O (stereo not shown) | > 10 µM
* O=S1(=O)c2ccc(Oc3cccnc3)cc2CN1CCc1ccccc1 | > 10 µM
* O=C(O)c1cccc(N2Cc3cc(Oc4cccnc4)ccc3S2(=O)=O)c1 | > 10 µM
* O=S1(=O)c2ccc(Oc3cccnc3)cc2CN1c1cc(OC(F)(F)F)ccc1Cl | > 31.6 µM
